Every entry's value here was drawn from ChEMBL document CHEMBL1132143.

System: Calf thymus DNA
ASSAY METHOD TEXT: Tested for thermal denaturation against CT-DNA
MEASUREMENT PARAMETERS: Bos taurus
Each entry below carries its reported ΔTm.
MEASURED ATTRIBUTE: ΔTm (°C)

[
  {
    "MOLECULAR STRING": "COC(=O)c1c2c(nn1C)C(=O)N1CCC[C@H]1C=N2",
    "TEST SYSTEM": "Calf thymus DNA",
    "ENDPOINT RESULT": 0.5
  },
  {
    "MOLECULAR STRING": "CO[C@@H]1Nc2ncccc2C(=O)N2CCC[C@@H]12",
    "TEST SYSTEM": "Calf thymus DNA",
    "ENDPOINT RESULT": 0.5
  },
  {
    "MOLECULAR STRING": "COc1cc2c(cc1NC(=O)OCc1ccccc1)N=C[C@@H]1CCCN1C2=O",
    "TEST SYSTEM": "Calf thymus DNA",
    "ENDPOINT RESULT": 0.4
  },
  {
    "MOLECULAR STRING": "CO[C@H]1Nc2ncccc2C(=O)N2CCC[C@@H]12",
    "TEST SYSTEM": "Calf thymus DNA",
    "ENDPOINT RESULT": 0.5
  },
  {
    "MOLECULAR STRING": "CO[C@H]1Nc2nccnc2C(=O)N2CCC[C@@H]12",
    "TEST SYSTEM": "Calf thymus DNA",
    "ENDPOINT RESULT": 0.7
  },
  {
    "MOLECULAR STRING": "COc1nc(OC)c2c(n1)C(=O)N1CCC[C@H]1C=N2",
    "TEST SYSTEM": "Calf thymus DNA",
    "ENDPOINT RESULT": 0.3
  }
]
